Just for reference, patent US20230407243A1 is where these values come from.

System: EKO-35 araC::emrAB Pore
protocol-details: MIC susceptibility profiling, porinated efflux platform
Format: cell-based, Escherichia coli
protocol-conditions: EKO-35 araC::emrAB Pore compared to EKO-35-Pore
Procedure: For genomic integration of the pore, the fhuA ΔC/Δ4L gene and the adjacent gentamicin resistance cassette were amplified using a high-fidelity polymerase and the fhuA_40_Up/gImS_3680_Low primers (Table 4). […] To a 384-well microtiter plate (Corning, untreated polystyrene), 500 nL of compound was dispensed, in duplicate, and serially titrated 2-fold using an Echo 550 acoustic liquid dispenser (Labcyte Inc.). […] Data was analyzed in both Prism (GraphPad, Version 9.2.0) and Microsoft Excel (Version 16.53). […]

molecule | Fold changes of MICs, fold
O=C(Nc1ccccc1)Nc1ccc(Br)c(C(F)(F)F)c1 | 1
C[n+]1c2cc(N)ccc2cc2ccc(N)cc21.[Cl-] | 2
Nc1ccccc1SCc1nc(-c2ccc(Cl)cc2)no1 | 16
O=C(NC(=O)N1CCc2c([nH]c3ccccc23)C1C(F)(F)F)c1ccccc1 (stereo not shown) | 2
[H]/N=C(/N)N[C@H]1[C@H](O)[C@@H](O)[C@H](O[C@@H]2O[C@@H](C)[C@](O)(C=O)[C@H]2O[C@@H]2O[C@@H](CO)[C@H](O)[C@@H](O)[C@@H]2NC)[C@@H](N/C(N)=N\[H])[C@@H]1O | 1
CN(C)[C@@H]1C(O)=C(C(N)=O)C(=O)[C@@]2(O)C(O)=C3C(=O)c4c(O)cccc4[C@@](C)(O)[C@H]3C[C@@H]12 | 1
CC(=O)NC[C@H]1CN(c2ccc(N3CCOCC3)c(F)c2)C(=O)O1 | 2
